Target: T1, CTLA4-Fc (Fitzgerald, #30R-CD152) (human, UniProt P16410 38-152)
T1 construct: Bought; also called human CTLA-4 (Fitzgerald); biotinylated-CTLA4; not shown: Fc part of the bought fusion, not described
T1 sequence (P16410 38-152 limits assumed): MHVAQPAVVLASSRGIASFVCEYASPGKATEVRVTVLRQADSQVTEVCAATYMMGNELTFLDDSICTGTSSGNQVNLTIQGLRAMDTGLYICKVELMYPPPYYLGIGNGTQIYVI
Assay: SPR (Biacore), immobilised CTLA4-Fc

# Binder, koff, s⁻¹
data = [
    ("CD86 mutant 1047 (ligand, Variant of the CD86 extracellular domain) APLKIQAYFNETADLPCQFANSQNLSLSELVVFWQDQENLVLNEVYLGKEKFDSVDSKYMGRTSFDSDSWTLRLHNLQIKDKGIYQCIIHHKKPTGLVKIHEMNSELSVLA", 0.0084),
    ("CD86 mutant 1042 (ligand, Variant of the CD86 extracellular domain) APLKIQAYFNETADLPCQFANSQNLSLSELVVFWQDQENLVLNEVYLGKEIFDSVSSKYMGRTSFDSDSWTLRLHNLQIKDKGIYQCIIHHKKPSGMVKIHQMDSELSVLA", 0.011),
    ("CD86 mutant 1043 (ligand, Variant of the CD86 extracellular domain) APLKIQAYFNETADLPCQFANSQNLSLSELVVFWQDQENLVLNEVYLGKEKFDSVDSKYMGRTSFDSDSWTLRLHNLQIKDKGIYQCIIHHKKPTGMIKIHEMNSELSVLA", 0.011),
    ("CD86 mutant 1045 (ligand, Variant of the CD86 extracellular domain) APLKIQAYFNETADLPCQFANSQNLTLSELVVFWQDQENLVLNEVYLGKEKFDSVDSKYMGRTSFDSDSWTLRLHNLQIKDKGLYQCIIHHKKPTGLVKIHEMNSELSVLA", 0.0083),
]
